The entries below are paired with their reported inhibition.
Target: Eukaryotic translation initiation factor 4H (Homo sapiens) (UniProt Q15056)
Test: human eIF4H binding inhibitors, primary screen, translation initiation inhibitor project, biochemical, uHTS, fluorescence polarization (AID 2012);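 note: calls also rest on retests at 20 µM and on dose response follow-up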
Settings: eIF4H fluorescence polarization binding assay; at 35 µM; stronger effect = higher value
Among all 290,000 compounds or so, about 2,700 (0.93%) were called active. The entries come from a sample that favours actives as a whole.
Entry rule: numbers only, all in %.

Before answering, review these 3 worked examples.
sample_smiles	inhibition (%)
COc1ccc(-c2nc3n(c(=O)c2C#N)CCS3)c(OC)c1	5.3
NS(=O)(=O)c1ccc(NC(=O)COC(=O)c2cc3ccccc3oc2=O)cc1	-1.4
NS(=O)(=O)c1ccc(NC(=O)COC(=O)c2ccc(Cl)nc2)cc1	7.6

Q: Using the record for `NS(=O)(=O)c1ccc(NC(=O)COC(=O)c2ccco2)cc1` , report its inhibition.
Result: -10.4

Q: Using the record for `CC(=O)Oc1ccc(-c2cccc(C(=O)N3CCCCC3)c2)cc1` , report its inhibition.
Result: 5.5

Q: Using the record for `CCc1nc2cccnc2n1-c1ccc(C(=O)O)cc1` , report its inhibition.
Result: 91.6

###

Target: Eukaryotic translation initiation factor 4H (Homo sapiens) (UniProt Q15056)
Assay: human eIF4H binding inhibitors, primary screen, translation initiation inhibitor project, biochemical, uHTS, fluorescence polarization (AID 2012);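 note: calls also rest on retests at 20 µM and on dose response follow-up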
Details: eIF4H fluorescence polarization binding assay; at 35 µM
The whole screen tested about 290,000 compounds, of which about 2,700 (0.93%) were called active. The rule behind the calls is not given here. What follows is part of a selection rich in actives, with near analogues and random picks from the rest.
Hi! Could you answer with just one of these? active, inactive

compound	assigned_class
O=C(NCCS(=O)(=O)c1ccc(Br)cc1)c1ccccc1Cl	inactive
O=C(CCS(=O)(=O)c1ccc(Br)cc1)NCCc1ccc(Cl)cc1	active
CC(Cc1ccccc1)C(=O)N(C)Cc1ccccc1 (stereo not given)	inactive
COc1ccc(Br)cc1/C=N/NC(=O)c1cccc(S(=O)(=O)N2CCOCC2)c1	inactive
COc1ccc(Cl)cc1NC(=O)CCS(=O)(=O)c1cc2c(cc1C)NC(=O)CO2	inactive
O=C(N/N=C/c1ccc([N+](=O)[O-])o1)c1cccc(S(=O)(=O)N2CCOCC2)c1	active
O=C(/C=C/c1ccco1)Nc1ccc(Oc2ccccc2)cc1	inactive
COc1cccc(/C=N/NC(=O)CNC(=O)c2ccc(S(=O)(=O)N3CCOCC3)cc2)c1OC	inactive

Q: Please state the recorded outcome for this compound: COc1ccc(CNC(=O)C(Cc2ccccc2)n2cccc2)cc1 (stereo not given)
Result: inactive

Q: Please state the recorded outcome for this compound: `CN(CCOc1ccccc1)C(=O)c1cc(COc2c(F)cccc2F)on1`
Result: inactive

###

Target: Eukaryotic translation initiation factor 4H (Homo sapiens) (UniProt Q15056)
Test: human eIF4H binding inhibitors, primary screen, translation initiation inhibitor project, biochemical, uHTS, fluorescence polarization (AID 2012);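 note: calls also rest on retests at 20 µM and on dose response follow-up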
Conditions: eIF4H fluorescence polarization binding assay; at 35 µM
Out of some 290,000 compounds screened, about 2,700 (0.93%) were called active. How the calls were made is not given here. The list comes from a sample in which actives are over-represented; it also holds close analogues and randomly drawn compounds.
Hi! Could you answer with just one of these? active, inactive

compound	assigned_class
Cc1cccc(NS(=O)(=O)c2ccc(-c3cnc(C4CC4)o3)cc2)c1	inactive

Q: Please state the recorded outcome for this compound: `CC(=O)N1CCN(c2ccccc2NC(=S)NC(=O)c2cc3ccccc3o2)CC1`
Result: inactive

###

Molecular target: Eukaryotic translation initiation factor 4H (Homo sapiens) (UniProt Q15056)
Assay: human eIF4H binding inhibitors, primary screen, translation initiation inhibitor project, biochemical, uHTS, fluorescence polarization (AID 2012);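 note: calls also rest on retests at 20 µM and on dose response follow-up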
Details: eIF4H fluorescence polarization binding assay; confirmation average; at 20 µM; stronger effect = higher value
Hit rate of the full screen: of about 290,000 compounds, about 2,700 (0.93%) were called active. For the sample, actives were picked, then their nearest neighbours and some compounds at random.
readout_name: inhibition (%)
Entry rule: numbers only, all in %.

Before answering, review these 5 worked examples.
compound	readout_name	experimental_result
CCOc1cnc(C(=O)NNC(=O)c2ccccc2Br)o1	inhibition	95
NC(=O)c1c(NC(=O)CSc2nnc(-c3ccco3)n2N)sc2c1CCCC2	inhibition	96.5
COCC(C)n1c(C)cc(C(=O)COc2ccc(C)nc2[N+](=O)[O-])c1C (stereo unspecified)	inhibition	70.5
N#Cc1ccccc1CN1C(=O)S/C(=C/c2cccn2-c2cccc(C(=O)O)c2)C1=O	inhibition	74.8
Cc1cc(C(=O)COC(=O)CNC(=O)c2ccc(F)cc2)c(C)n1Cc1ccco1	inhibition	-10.3

Q: Using the record for `O=C(COC(=O)C12CC3CC(CC(C3)C1)C2)NCc1ccco1` , report its inhibition.
Result: 92.2

Q: Using the record for `Cc1ccc(C(=O)Oc2coc(CSc3nnc(NC(=O)c4cccs4)s3)cc2=O)cc1C` , report its inhibition.
Result: 85.6

Q: Using the record for Cc1ccc(OCC(=O)NC(C)c2ccccc2)c([N+](=O)[O-])n1 (stereo unspecified) , report its inhibition.
Result: -2.8

Q: Using the record for `Oc1ccc(N=Cc2sc3ccccc3c2Cl)cc1` , report its inhibition.
Result: 73.8

Q: Using the record for `CCN(CC(=O)NCc1cccs1)C(=O)c1cccc(S(=O)(=O)Nc2ccccc2OC)c1` , report its inhibition.
Result: 53.9

Q: Using the record for `Cc1cc(C)n2nc(SCC(N)=O)nc2n1` , report its inhibition.
Result: 113

###

Target: Eukaryotic translation initiation factor 4H (Homo sapiens)
Experiment: human eIF4H binding inhibitors, primary screen, translation initiation inhibitor project, biochemical, uHTS, fluorescence polarization (AID 2012);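 note: calls also rest on retests at 20 µM and on dose response follow-up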
Conditions: eIF4H fluorescence polarization binding assay; at 35 µM; stronger effect = higher value
Out of some 290,000 compounds screened, about 2,700 (0.93%) were called active. The sample as a whole holds a higher share of actives than the screen did.
readout_name: inhibition (%)
Entry rule: numbers only, all in %.

Q: Using the record for `CC(=O)NS(=O)(=O)c1ccccc1` , report its inhibition.
Result: -6.2

###

Target: Eukaryotic translation initiation factor 4H (Homo sapiens)
Assay: human eIF4H binding inhibitors, primary screen, translation initiation inhibitor project, biochemical, uHTS, fluorescence polarization (AID 2012);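 note: calls also rest on retests at 20 µM and on dose response follow-up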
Settings: eIF4H fluorescence polarization binding assay; at 35 µM
The whole screen tested about 290,000 compounds, of which about 2,700 (0.93%) were called active. The rule behind the calls is not given here. This excerpt belongs to a sample that is enriched for actives.
Hi! Could you answer with just one of these? active, inactive

Check out these entries, answers already filled in.
compound	experimental_system	assigned_class
CC(=O)c1cnc(SCC(=O)O)nc1C	Eukaryotic translation initiation factor 4H (Homo sapiens)	active
CCC1S/C(=N/N=C/c2ccco2)NC1=O (stereo unspecified)	Eukaryotic translation initiation factor 4H (Homo sapiens)	inactive
Nc1ccc(S(=O)(=O)NC(=O)c2ccccc2)cc1	Eukaryotic translation initiation factor 4H (Homo sapiens)	active

Q: Please state the recorded outcome for this compound: `CSc1ncc(C(=O)NCCCc2ccccc2)c(C)n1`
Result: inactive

Q: Please state the recorded outcome for this compound: CC(C)(C)C1C/C(=C/c2ccco2)C(=O)/C(=C/c2ccco2)C1 (stereo unspecified)
Result: active

Q: Please state the recorded outcome for this compound: `CC(=O)c1cnc(SCCN2C(=O)c3ccccc3C2=O)nc1C`
Result: inactive

###

Target: Eukaryotic translation initiation factor 4H (Homo sapiens)
Test: human eIF4H binding inhibitors, primary screen, translation initiation inhibitor project, biochemical, uHTS, fluorescence polarization (AID 2012);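 note: calls also rest on retests at 20 µM and on dose response follow-up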
Conditions: eIF4H fluorescence polarization binding assay; at 35 µM
Hit rate of the full screen: of about 290,000 compounds, about 2,700 (0.93%) were called active. The rule behind the calls is not given here. For the sample, actives were picked, then their nearest neighbours and some compounds at random.
Hi! Could you answer with just one of these? t for active, f for inactive

compound	experimental_system	assigned_class
O=C(Nc1ccc(Cl)cc1)c1cccc(OC(=S)N2CCOCC2)c1	Eukaryotic translation initiation factor 4H (Homo sapiens)	f
CCNCc1cc2cc(C)ccc2[nH]c1=O	Eukaryotic translation initiation factor 4H (Homo sapiens)	f
O=C1CCCC2=C1C(c1cccs1)CC(=O)N2c1ccc(F)cc1 (stereo unspecified)	Eukaryotic translation initiation factor 4H (Homo sapiens)	f

Q: Please state the recorded outcome for this compound: CCOc1ccc(-n2cnnn2)cc1S(=O)(=O)N1CCC(C)CC1C (stereo unspecified)
Result: t

Q: Please state the recorded outcome for this compound: O=[N+]([O-])c1ccccc1/C=C/CN1CCCC(CO)C1 (stereo unspecified)
Result: f

###

Target: Eukaryotic translation initiation factor 4H (Homo sapiens)
Assay: human eIF4H binding inhibitors, primary screen, translation initiation inhibitor project, biochemical, uHTS, fluorescence polarization (AID 2012);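 note: calls also rest on retests at 20 µM and on dose response follow-up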
Details: eIF4H fluorescence polarization binding assay; at 35 µM; stronger effect = higher value
Out of some 290,000 compounds screened, about 2,700 (0.93%) were called active. The sample as a whole holds a higher share of actives than the screen did.
readout_name: inhibition (%)
Entry rule: numbers only, all in %.

Before answering, review these 10 worked examples.
compound	measurement_units	experimental_result
COc1cccc(S(=O)(=O)NCc2ccc(C(=O)NCc3ccccn3)cc2)c1	%	-1
Cc1cc(C)c2nc(NC(=O)C3CCCO3)sc2c1 (centres undefined)	%	-3.8
Cc1ccccc1NC(=O)CCNS(=O)(=O)c1ccc2[nH]c(=O)oc2c1	%	-5.4
CNC(=S)N1CCC(NC(=O)C(Cc2ccc(F)cc2)NC(C)=O)CC1 (centres undefined)	%	63.8
Cc1cccnc1NC(=O)Cn1c(=O)oc2ccccc21	%	4.8
Cc1c(C)c2ccc(OCC(=O)N3CCC(C(=O)O)CC3)c(C)c2oc1=O	%	-4
Cc1cc(C(=O)COC(=O)C2CC2)c(C)n1-c1ccc(F)cc1	%	4.9
COc1ccccc1NC(=O)N1CCCC1C(=O)NCc1cccs1 (centres undefined)	%	-15.4
COc1ccc(OCc2cc(C(=O)NCC3(C)COC3)no2)c(Cl)c1	%	-2.3
CCOc1ccccc1NC(=O)CCc1nnc2ccc(NCc3ccco3)nn12	%	13.1

Q: Using the record for `Cc1cc(C)nc(S/C=C/C(=O)c2ccccc2)n1` , report its inhibition.
Result: -7.4

Q: Using the record for `Cc1ccc(-n2c(C)cc(C(=O)CN3C(=O)C(=O)N(C4CCCC4)C3=O)c2C)cc1` , report its inhibition.
Result: 1.2

Q: Using the record for Cc1c(CC(=O)N2CCN(C(=O)C3COc4ccccc4O3)CC2)c(=O)oc2c(O)c(O)ccc12 (centres undefined) , report its inhibition.
Result: 61

Q: Using the record for `O=C(NCc1ccccn1)c1ccc2nc(-c3ccco3)c(-c3ccco3)nc2c1` , report its inhibition.
Result: 97

Q: Using the record for `COc1ccc(N2CCN(C(=S)Nc3ccc(S(N)(=O)=O)cc3)CC2)cc1` , report its inhibition.
Result: -13.4

Q: Using the record for `Cc1ccc(NC(=O)CCN2C(=O)c3ccccc3C2=O)cc1C` , report its inhibition.
Result: -6.5

Q: Using the record for `COc1cc(/C=N/NC(=O)c2cc(C)n(-c3ccc(F)cc3)c2C)cc(OC)c1O` , report its inhibition.
Result: 0.7

Q: Using the record for COc1ccc(CC(NC(C)=O)C(=O)NC2CCN(C(=O)c3ccc(Cl)cc3)CC2)cc1 (centres undefined) , report its inhibition.
Result: -0.5
